The values you see were collected from patent US20230146395A1.

# EXPERIMENTAL_TARGET: Full length human recombinant PIKFYVE (Homo sapiens, UniProt Q9Y2I7)
# Construct: Full length human recombinant PIKFYVE
# Sequence (Q9Y2I7 whole entry): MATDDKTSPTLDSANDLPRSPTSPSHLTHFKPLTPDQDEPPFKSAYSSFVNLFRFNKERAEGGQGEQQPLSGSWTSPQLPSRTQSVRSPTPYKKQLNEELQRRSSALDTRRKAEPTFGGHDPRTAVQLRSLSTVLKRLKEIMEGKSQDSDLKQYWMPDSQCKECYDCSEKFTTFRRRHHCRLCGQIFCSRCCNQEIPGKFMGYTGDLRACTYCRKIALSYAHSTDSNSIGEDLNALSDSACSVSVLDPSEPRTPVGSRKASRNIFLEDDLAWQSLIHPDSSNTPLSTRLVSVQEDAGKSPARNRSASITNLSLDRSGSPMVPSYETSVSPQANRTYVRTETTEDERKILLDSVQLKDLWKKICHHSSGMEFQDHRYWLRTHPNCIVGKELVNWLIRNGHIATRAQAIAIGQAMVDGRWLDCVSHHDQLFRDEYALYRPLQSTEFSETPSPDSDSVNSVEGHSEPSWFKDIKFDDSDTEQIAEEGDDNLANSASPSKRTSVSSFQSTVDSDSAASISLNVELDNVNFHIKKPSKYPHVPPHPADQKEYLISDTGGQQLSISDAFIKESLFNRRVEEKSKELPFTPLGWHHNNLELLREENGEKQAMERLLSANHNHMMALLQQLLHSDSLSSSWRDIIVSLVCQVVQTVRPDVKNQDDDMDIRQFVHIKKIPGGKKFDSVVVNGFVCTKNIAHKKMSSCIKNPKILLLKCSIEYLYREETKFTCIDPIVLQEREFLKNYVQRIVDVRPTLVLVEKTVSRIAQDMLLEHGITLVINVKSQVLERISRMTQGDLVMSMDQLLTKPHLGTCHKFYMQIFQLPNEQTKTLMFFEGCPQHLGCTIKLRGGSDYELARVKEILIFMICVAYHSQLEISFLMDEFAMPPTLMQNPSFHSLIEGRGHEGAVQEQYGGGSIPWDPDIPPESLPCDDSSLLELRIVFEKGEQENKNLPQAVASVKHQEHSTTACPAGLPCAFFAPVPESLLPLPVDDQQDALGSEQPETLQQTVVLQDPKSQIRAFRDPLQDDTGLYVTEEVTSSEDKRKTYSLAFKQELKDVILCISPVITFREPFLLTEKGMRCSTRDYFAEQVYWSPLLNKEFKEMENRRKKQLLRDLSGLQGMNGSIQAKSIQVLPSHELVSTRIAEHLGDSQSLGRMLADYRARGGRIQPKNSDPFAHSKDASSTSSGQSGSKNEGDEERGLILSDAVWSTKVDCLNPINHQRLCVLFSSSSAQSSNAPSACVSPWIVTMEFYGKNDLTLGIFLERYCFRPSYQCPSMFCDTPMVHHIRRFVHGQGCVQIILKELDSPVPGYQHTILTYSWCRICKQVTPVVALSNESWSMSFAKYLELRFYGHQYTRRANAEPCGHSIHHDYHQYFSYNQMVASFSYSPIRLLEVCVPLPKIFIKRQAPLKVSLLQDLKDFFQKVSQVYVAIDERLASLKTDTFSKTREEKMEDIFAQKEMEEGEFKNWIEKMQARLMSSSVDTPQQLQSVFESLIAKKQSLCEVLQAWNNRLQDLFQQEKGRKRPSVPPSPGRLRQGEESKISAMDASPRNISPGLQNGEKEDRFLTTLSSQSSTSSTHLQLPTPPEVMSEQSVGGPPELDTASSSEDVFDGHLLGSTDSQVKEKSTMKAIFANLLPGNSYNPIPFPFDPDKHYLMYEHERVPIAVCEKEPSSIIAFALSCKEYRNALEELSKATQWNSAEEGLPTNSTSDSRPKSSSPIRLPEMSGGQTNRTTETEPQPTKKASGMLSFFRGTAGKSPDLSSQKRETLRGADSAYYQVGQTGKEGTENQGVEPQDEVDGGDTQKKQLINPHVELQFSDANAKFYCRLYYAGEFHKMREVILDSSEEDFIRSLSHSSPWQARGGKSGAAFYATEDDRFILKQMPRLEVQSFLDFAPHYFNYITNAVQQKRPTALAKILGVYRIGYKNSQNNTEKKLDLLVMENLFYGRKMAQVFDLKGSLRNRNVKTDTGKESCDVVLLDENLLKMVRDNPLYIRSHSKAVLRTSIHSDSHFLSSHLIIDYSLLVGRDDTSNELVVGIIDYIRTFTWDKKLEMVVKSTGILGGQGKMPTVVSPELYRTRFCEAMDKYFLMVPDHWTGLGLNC
# TEST_SUMMARY: Inhibition of PIKfyve (microfluidic electrophoresis kinase assay, PI3P/PS substrate)
# CONDITION: 12 concentrations
READOUT_TYPE: IC50 (nM)

Solved cases below.
MOLECULE	IC50 / nM
c1ccc(-c2cnc(Nc3nc(N4CCOCC4)c4oc(-c5ccncc5)cc4n3)o2)cc1 [Compound 46]	107
Cc1c(-c2cccnc2)oc2c(N3CCOCC3)nc(-n3ccc(-c4ccccc4)n3)nc12 [Compound 180]	55.6

[P] CCNC(=O)c1cc2nc(-n3ccc(-c4cccc(C)c4)n3)nc(N3CCOCC3)c2o1 [Compound 95]
[Q] Cc1cc(-c2cc3nc(-n4ccc(-c5ccccc5)n4)nc(N4CCOCC4)c3o2)sn1 [Compound 211]
[ask] Input pair: P , Q . Output: entry with lower IC50. Respond using the label that marks the chosen record.
[reply] P
(P: 11.8 nM, Q: 20.8 nM)
